Tested on: human osteosarcoma cells, MG63
Experiment: Tumor cell recoding via quantification of pRB (immunofluorescence, ImageJ)
Format: cell-based
Details: Table 4
Hi there, I'd appreciate the recorded pRB (%) for every entry that follows.
Could you give me the number in %? Just the number is fine.

Inquiry: For the sequence shown here, NDEGLECVPTEERPVQVRKIRIKPHQGQKKATVFLQHNK [SEQ ID NO: 79] (Non-cyclic GFR-binding peptide) , give the reported pRB (%).
Reply text: 21

Inquiry: For the sequence shown here, VPQALSPISILYIDDMGVPTYKQYEEGMSVAE (Non-cyclic GFR-binding peptide) [SEQ ID NO: 68] , give the reported pRB (%).
Reply text: 7

Inquiry: For the sequence shown here, VPTEESNITTQIMRIKPHQGQHIGEMSFLQH [SEQ ID NO: 84] (Non-cyclic GFR-binding peptide) , give the reported pRB (%).
Reply text: 10

Inquiry: For the sequence shown here, RNVQCRPTQLEPLPIVYYEIVRKKPEQLSNTLE (Non-cyclic GFR-binding peptide) [SEQ ID NO: 95] , give the reported pRB (%).
Reply text: 8

Inquiry: For the sequence shown here, TPTKMSPINMLYFNEKNNIIYGKIPGMVVD (Non-cyclic GFR-binding peptide) [SEQ ID NO: 76] , give the reported pRB (%).
Reply text: 15

Inquiry: For the sequence shown here, VPTHHSAISMLYLELGGDKPLENYQFLQ (Non-cyclic GFR-binding peptide) [SEQ ID NO: 97] , give the reported pRB (%).
Reply text: 9

* * *

Test system: Smad1/5/8 signaling pathway
Test: Growth factor receptor activation: quantification of western blots of phospho-Smad1/5/8
Assay type: cell-based
Settings: human osteosarcoma cells MG63; 400 ng/mL GFR-binding compound; Table 4
MEASUREMENT KIND: p-Smad1/5/8 (%)
Could you give me the number in %? Just the number is fine.

Inquiry: For the sequence shown here, VPTEESNITTQIMRIKPHQGQHIGEMSFLQH [SEQ ID NO: 69] (Non-cyclic GFR-binding peptide) , give the reported p-Smad1/5/8 (%).
Reply text: 32

Inquiry: For the sequence shown here, VPTHHSAISTLYLELAGEKPLKNYQFLQHNK (Non-cyclic GFR-binding peptide) [SEQ ID NO: 96] , give the reported p-Smad1/5/8 (%).
Reply text: 47

Inquiry: For the sequence shown here, ASASPSSVPQDLEPLTILYYVGRTPKVEQLSNMV (Non-cyclic GFR-binding peptide) [SEQ ID NO: 65] , give the reported p-Smad1/5/8 (%).
Reply text: 38

Inquiry: For the sequence shown here, VPTELSPISILFIRIKPHQGHLGEMSAAVVE (Non-cyclic GFR-binding peptide) [SEQ ID NO: 70] , give the reported p-Smad1/5/8 (%).
Reply text: 30

Inquiry: For the sequence shown here, APTKLEPLPMVYYEERRNVIEQLSNNMVVR (Non-cyclic GFR-binding peptide) [SEQ ID NO: 86] , give the reported p-Smad1/5/8 (%).
Reply text: 34

Inquiry: For the sequence shown here, VPTEESNITTQIMRIKPHQGQHIGEMSFLQH [SEQ ID NO: 84] (Non-cyclic GFR-binding peptide) , give the reported p-Smad1/5/8 (%).
Reply text: 22

Inquiry: For the sequence shown here, NDEGLECVPTEERPVQVRKIRIKPHQGQKKATVFLQHNK [SEQ ID NO: 64] (Non-cyclic GFR-binding peptide) , give the reported p-Smad1/5/8 (%).
Reply text: 36

* * *

Test system: Smad1/5/8 signaling pathway
Assay: Growth factor receptor activation: quantification of western blots of phospho-Smad1/5/8
Assay type: cell-based
Conditions: human osteosarcoma cells MG63; 400 ng/mL GFR-binding compound; Table 4
MEASUREMENT KIND: p-Smad1/5/8 (%)
Could you give me the number in %? Just the number is fine.

Inquiry: Please provide the recorded p-Smad1/5/8 (%) for VPARLSPISILYIDAANNVVYKQYEDM (Non-cyclic GFR-binding peptide) [SEQ ID NO: 74] , tested on Smad1/5/8 signaling pathway.
Reply text: 51

Inquiry: Please provide the recorded p-Smad1/5/8 (%) for RNVQCRPTQLEPLPIVYYEIVRKKPEQLSNTLEDHLA [SEQ ID NO: 66] (Non-cyclic GFR-binding peptide) , tested on Smad1/5/8 signaling pathway.
Reply text: 38

Inquiry: Please provide the recorded p-Smad1/5/8 (%) for RNVQCRPTQLEPLPIVYYEIVRKKPEQLSNTLE (Non-cyclic GFR-binding peptide) [SEQ ID NO: 95] , tested on Smad1/5/8 signaling pathway.
Reply text: 29

Inquiry: Please provide the recorded p-Smad1/5/8 (%) for VPQALNAISTLYFDDSSNVILKKYRNMAVS (Non-cyclic GFR-binding peptide) [SEQ ID NO: 72] , tested on Smad1/5/8 signaling pathway.
Reply text: 48

Inquiry: Please provide the recorded p-Smad1/5/8 (%) for VPTKLSPISILYIDKMGVPTYKQYEEGMSVAE (Non-cyclic GFR-binding peptide) [SEQ ID NO: 82] , tested on Smad1/5/8 signaling pathway.
Reply text: 35

Inquiry: Please provide the recorded p-Smad1/5/8 (%) for ASASPSSVPQDLEPLTILYYVGRTPKVEQLSNMVEDH (Non-cyclic GFR-binding peptide) [SEQ ID NO: 80] , tested on Smad1/5/8 signaling pathway.
Reply text: 34

* * *

Hi there, I'd appreciate the recorded pRB (%) for every entry that follows.
Test system: human osteosarcoma cells, MG63
Assay: Tumor cell recoding via quantification of pRB (immunofluorescence, ImageJ)
Format: cell-based
Conditions: Table 4
Protocol: The cells were first fixed for 20 min with 4% paraformaldehyde/PBS at 4° C. After fixation, the cells were permeabilized in PBS containing 1% Triton X-100 for 15 min. […] For this type of quantification the freeware image analysis ImageJ® software was used. […] Threshold values were determined empirically by selecting a setting, which gave the most accurate binary image for a subset of randomly selected photomicrographs. The cell area was determined by manual delineation on raw fluorescent images. […]
Could you give me the number in %? Just the number is fine.

Inquiry: For the sequence shown here, RNVQCRPTQLEPLPIVYYEIVRKKPEQLSNTLEDHLA [SEQ ID NO: 81] (Non-cyclic GFR-binding peptide) , give the reported pRB (%).
Reply text: 19

Inquiry: For the sequence shown here, NDEGLECVPTEERPVQVRKIRIKPHQGQKKATVFLQHNK [SEQ ID NO: 64] (Non-cyclic GFR-binding peptide) , give the reported pRB (%).
Reply text: 14

Inquiry: For the sequence shown here, VPTKLSAISTLYLDLAREEPLKNYQEMVVE (Non-cyclic GFR-binding peptide) [SEQ ID NO: 87] , give the reported pRB (%).
Reply text: 16

Inquiry: For the sequence shown here, APTKLEPLPMVYYEERRNVIEQLSNNMVVR (Non-cyclic GFR-binding peptide) [SEQ ID NO: 86] , give the reported pRB (%).
Reply text: 11

Inquiry: For the sequence shown here, VPQALSPISILFIVGRKPKVYKQYEMIVERS (Non-cyclic GFR-binding peptide) [SEQ ID NO: 89] , give the reported pRB (%).
Reply text: 18

Inquiry: For the sequence shown here, VPQALNAISTLYFDDSSNVILKKYRNMAVS (Non-cyclic GFR-binding peptide) [SEQ ID NO: 72] , give the reported pRB (%).
Reply text: 11

Inquiry: For the sequence shown here, VPTELSPISILFIRIKPHQGHLGEMSAAVVE (Non-cyclic GFR-binding peptide) [SEQ ID NO: 70] , give the reported pRB (%).
Reply text: 24

* * *

Test system: Smad1/5/8 signaling pathway
Experiment: Growth factor receptor activation: quantification of western blots of phospho-Smad1/5/8
Assay type: cell-based
Conditions: human osteosarcoma cells MG63; 400 ng/mL GFR-binding compound; Table 4
MEASUREMENT KIND: p-Smad1/5/8 (%)
Could you give me the number in %? Just the number is fine.

Inquiry: For the sequence shown here, APTQLSAISTLYLEIVRKKPLKNYQEMEDH (Non-cyclic GFR-binding peptide) [SEQ ID NO: 78] , give the reported p-Smad1/5/8 (%).
Reply text: 58

Inquiry: For the sequence shown here, APTQLSAISTLYLEIVRKKPLKNYQFLQHNK (Non-cyclic GFR-binding peptide) [SEQ ID NO: 77] , give the reported p-Smad1/5/8 (%).
Reply text: 52

Inquiry: For the sequence shown here, TPTKMSPINMLYFNEKNNIIYGKIPGMVVD (Non-cyclic GFR-binding peptide) [SEQ ID NO: 76] , give the reported p-Smad1/5/8 (%).
Reply text: 55

Inquiry: For the sequence shown here, NDEGLECVPTEERPVQVRKIRIKPHQGQKKATVFLQHNK [SEQ ID NO: 79] (Non-cyclic GFR-binding peptide) , give the reported p-Smad1/5/8 (%).
Reply text: 27

Inquiry: For the sequence shown here, TQVQLEPLTLLYYDENEKVIEQLSNDMVVE (Non-cyclic GFR-binding peptide) [SEQ ID NO: 71] , give the reported p-Smad1/5/8 (%).
Reply text: 47

Inquiry: For the sequence shown here, VPQALSPISILFIVGRKPKVYKQYEMIVERS (Non-cyclic GFR-binding peptide) [SEQ ID NO: 89] , give the reported p-Smad1/5/8 (%).
Reply text: 41

Inquiry: For the sequence shown here, VPTKLSAISTLYLDLAREEPLKNYQEMVVE (Non-cyclic GFR-binding peptide) [SEQ ID NO: 87] , give the reported p-Smad1/5/8 (%).
Reply text: 38

meta.source: patent US20190224279A1
